tested on: PBMCs obtained from uninfected individuals; assay: ATP release by PBMCs from uninfected individuals (ATPlite); type: cell-based, human; conditions: PBMCs from uninfected individuals; Prob 500 μM, 10Panx1 peptide 300 μM, TAK779 5 μM, AMD3100 5 μM
measured_attribute: effect on release of ATP in response to HIV-gp120

Consider the molecule c1cc(CN2CCCNCCNCCCNCC2)ccc1CN1CCCNCCNCCCNCC1 [AMD3100] and give its recorded effect on release of ATP in response to HIV-gp120. prevented the release

Consider the molecule CCCN(CCC)S(=O)(=O)c1ccc(C(=O)O)cc1 [probenecid] and give its recorded effect on release of ATP in response to HIV-gp120. prevented the release

Consider the molecule Cc1ccc(-c2ccc3c(c2)C=C(C(=O)Nc2ccc(C[N+](C)(C)C4CCOCC4)cc2)CCC3)cc1.[Cl-] [TAK779] and give its recorded effect on release of ATP in response to HIV-gp120. prevented the release
